pIC50: −log10 of the molar value.
Consider compounds characterized by their pIC50 with Transient receptor potential cation channel subfamily V member 1 (Homo sapiens).
Sequence (Q8NER1 whole entry): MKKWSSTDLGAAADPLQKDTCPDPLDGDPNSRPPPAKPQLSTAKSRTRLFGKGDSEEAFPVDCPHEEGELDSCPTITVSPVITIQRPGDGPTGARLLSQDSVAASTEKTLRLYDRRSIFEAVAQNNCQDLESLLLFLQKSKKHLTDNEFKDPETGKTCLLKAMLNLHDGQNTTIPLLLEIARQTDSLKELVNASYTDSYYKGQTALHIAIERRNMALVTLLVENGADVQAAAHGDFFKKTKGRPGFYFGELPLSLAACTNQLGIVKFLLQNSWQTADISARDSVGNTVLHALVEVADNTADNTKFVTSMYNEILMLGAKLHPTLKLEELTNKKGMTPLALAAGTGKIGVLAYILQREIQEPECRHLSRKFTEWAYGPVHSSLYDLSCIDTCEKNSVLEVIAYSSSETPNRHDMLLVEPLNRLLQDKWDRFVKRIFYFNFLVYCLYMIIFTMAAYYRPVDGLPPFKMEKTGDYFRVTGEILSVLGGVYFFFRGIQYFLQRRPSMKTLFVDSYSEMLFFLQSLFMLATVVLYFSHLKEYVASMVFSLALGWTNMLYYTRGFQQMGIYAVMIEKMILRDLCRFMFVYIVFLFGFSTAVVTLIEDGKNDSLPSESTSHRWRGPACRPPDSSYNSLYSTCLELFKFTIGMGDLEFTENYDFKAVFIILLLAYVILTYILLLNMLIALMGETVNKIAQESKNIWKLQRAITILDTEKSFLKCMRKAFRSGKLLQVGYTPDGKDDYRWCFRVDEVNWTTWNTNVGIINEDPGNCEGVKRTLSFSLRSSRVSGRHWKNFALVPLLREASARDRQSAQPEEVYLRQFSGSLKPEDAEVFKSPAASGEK
test.readout: pIC50

> print(dat)
                                    compound                               test.target  quantitative.readout
 1  CC(C)NCc1c(C(=O)N[C@H](C)C(C)C)noc1-c1ccc(C(F)(F)F)cc1  Transient receptor potential cation channel subfamily V member 1 (Homo sapiens)                  6.10
 2  O=C(N[C@@H]1CCC[C@H](O)C1)c1noc(-c2ccc(C(F)(F)F)c(F)c2)c1Cl  Transient receptor potential cation channel subfamily V member 1 (Homo sapiens)                  9.20
 3  O=C(N[C@@H]1CCC[C@H](O)C1)c1noc(-c2ccc(C(F)(F)F)cc2)c1CO  Transient receptor potential cation channel subfamily V member 1 (Homo sapiens)                  7.10
 4  CCOc1cc(Cl)ccc1-c1onc(C(=O)N[C@@H]2CCC[C@H](O)C2)c1C  Transient receptor potential cation channel subfamily V member 1 (Homo sapiens)                  7.90
 5  O=C(NC1CCOCC1)c1noc(-c2ccc(C(F)(F)F)cc2)c1CO  Transient receptor potential cation channel subfamily V member 1 (Homo sapiens)                  5.50
 6  CC(C)[C@H](C)NC(=O)c1noc(-c2ccc(C(F)(F)F)c(F)c2)c1CO  Transient receptor potential cation channel subfamily V member 1 (Homo sapiens)                  7.70
 7  O=C(NC1CCCC1)c1noc(-c2ccc(C(F)(F)F)c(F)c2)c1CO  Transient receptor potential cation channel subfamily V member 1 (Homo sapiens)                  7.40
 8  CCOc1cc(Cl)ccc1-c1onc(C(=O)NC2CCOCC2)c1C  Transient receptor potential cation channel subfamily V member 1 (Homo sapiens)                  7.90
 9  O=C(N[C@@H]1CCC[C@H](O)C1)c1onc(-c2ccc(F)cc2)c1Cl  Transient receptor potential cation channel subfamily V member 1 (Homo sapiens)                  6.10
10  CC[C@H](CO)NC(=O)c1noc(-c2ccc(C(F)(F)F)c(F)c2)c1CO  Transient receptor potential cation channel subfamily V member 1 (Homo sapiens)                  6.80
11  CC(C)NCc1c(C(=O)NC2CCCC2)noc1-c1ccc(C(F)(F)F)cc1  Transient receptor potential cation channel subfamily V member 1 (Homo sapiens)                  6.50
12  CCNC(=O)c1c(C(=O)NC2CCCC2)noc1-c1ccc(C(F)(F)F)cc1  Transient receptor potential cation channel subfamily V member 1 (Homo sapiens)                  5.30
13  O=C(N[C@@H]1CCC[C@H](O)C1)c1noc(-c2ccc(C(F)(F)F)cc2)c1Cl  Transient receptor potential cation channel subfamily V member 1 (Homo sapiens)                  9.30
14  O=C(N[C@@H]1CCC[C@H](O)C1)c1onc(-c2ccc(Cl)c(F)c2)c1Cl  Transient receptor potential cation channel subfamily V member 1 (Homo sapiens)                  8.50
15  O=C(N[C@@H]1CCC[C@H](O)C1)c1noc(-c2ccc(Cl)cc2)c1Cl  Transient receptor potential cation channel subfamily V member 1 (Homo sapiens)                  8.30
16  CC(C)NCc1c(C(=O)N[C@@H](C)C(C)C)noc1-c1ccc(C(F)(F)F)cc1  Transient receptor potential cation channel subfamily V member 1 (Homo sapiens)                  7.20
17  CCOc1cc(Cl)ccc1-c1onc(C(=O)NC2CCC(O)CC2)c1C (stereo unspecified)  Transient receptor potential cation channel subfamily V member 1 (Homo sapiens)                  6.70
18  O=C(NC1CCCC1)c1noc(-c2ccc(C(F)(F)F)cc2)c1C(=O)O  Transient receptor potential cation channel subfamily V member 1 (Homo sapiens)                  5.80
19  CC(O)c1c(C(=O)NC2CCCC2)noc1-c1ccc(C(F)(F)F)cc1 (stereo unspecified)  Transient receptor potential cation channel subfamily V member 1 (Homo sapiens)                  6.00
20  CN(C)C(=O)c1c(C(=O)NC2CCCC2)noc1-c1ccc(C(F)(F)F)cc1  Transient receptor potential cation channel subfamily V member 1 (Homo sapiens)                  5.70
21  CC(C)(O)c1c(C(=O)NC2CCCC2)noc1-c1ccc(C(F)(F)F)cc1  Transient receptor potential cation channel subfamily V member 1 (Homo sapiens)                  5.30
